A collection of molecules and their measured MIC
- Test system: Cladosporium resinae

{"columns": ["molecule", "scale unit", "censoring sign", "MIC"],
 "data": [
  ["Cc1cc2cccc([N+]([O-])=NC#N)c2o1 [Example 16]", "µg/mL", ">", 100],
  ["N#CN=[N+]([O-])c1cccc2c1OC(CCl)C2 (stereo not shown) [Example 13]", "µg/mL", "=", 100],
  ["CC1Cc2cc(Cl)cc([N+]([O-])=NC#N)c2O1 (stereo not shown) [Example 6]", "µg/mL", "=", 25],
  ["CCC1Cc2cccc([N+]([O-])=NC#N)c2O1 (stereo not shown) [Example 8]", "µg/mL", "=", 10],
  ["CCCCc1cc2cccc([N+]([O-])=NC#N)c2o1 [Example 20]", "µg/mL", "=", 100],
  ["N#CN=[N+]([O-])c1cccc2c1OC(CO)C2 (stereo not shown) [Example 12]", "µg/mL", "=", 100],
  ["CC1Oc2c(cc(Cl)cc2[N+]([O-])=NC#N)C1C (stereo not shown) [Example 5]", "µg/mL", "=", 25]
]}
